# assay_summary: TOX21_p53_BLA_p2_viability: Viability Assessment in the Tox21 HCT-116 p53 Agonism Beta-lactamase Assay, Phase 2 (AID 2283591);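 further: compound exposure lasted 16 h at 37 °C; actives lower the ATP signal meaning cytotoxicity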
Records with an inconclusive call do not appear. Calls of active or inactive are those of the source. How the source made its calls: active means hit-call score of the fitted dose curve at least 0.9, where 1 is the maximum; inconclusive means response in the unintended direction; inactive means score below 0.9.
Outcomes you can answer with include only these: TRUE for active, FALSE for inactive

Answered cases to consult:
CC(=O)Nc1ccn(C2COC(COC(=O)c3ccccc3)O2)c(=O)n1 (centres undefined) = FALSE
Cc1cc(-c2ccc(N=Nc3ccc4c(S(=O)(=O)O)cc(S(=O)(=O)O)c(N)c4c3O)c(C)c2)ccc1N=Nc1ccc2c(S(=O)(=O)O)cc(S(=O)(=O)O)c(N)c2c1O = FALSE
COc1cc(N)c(Cl)cc1C(=O)NC1CCN(CCCOc2ccc(F)cc2)CC1OC (centres undefined) = FALSE
O=C(O)c1ccc(OCCn2ccnc2)cc1 = FALSE
CC=C(C)C#N = FALSE

Task: Could you kindly confirm the outcome this assay logged for "Cc1cc(=O)oc2cc(O)cc(O)c12" ?
Result: FALSE

Task: Which result was noted for this compound in the test: "CCCCCCc1ccc(-c2ccc(C#N)cc2)cc1"
Result: FALSE

Task: Dear colleague, could you share the recorded outcome for "BrCCCCCBr" when you have a moment?
Result: FALSE

Task: Which outcome did this test record for the compound "Cc1cc(C)c(NC(=O)CN(CC(=O)O)CC(=O)O)c(C)c1Br" ?
Result: FALSE

Task: Per the assay record, what outcome was assigned to CN1CCC(CN2c3ccccc3Sc3ccccc32)C1 (centres undefined) ?
Result: FALSE

Task: Please let me know the test result on file for "O=C(Nc1ccc(Br)cc1)c1cc(Br)c(Br)s1" .
Result: TRUE

Task: Which outcome was entered for the compound CC(=O)C1CCCCC1=O (centres undefined) in this test?
Result: FALSE

----------
# assay_summary: TOX21_p53_BLA_p2_viability: Viability Assessment in the Tox21 HCT-116 p53 Agonism Beta-lactamase Assay, Phase 2 (AID 2283591);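 further: compound exposure lasted 16 h at 37 °C; actives lower the ATP signal meaning cytotoxicity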
Inconclusive results are not listed. Calls of active or inactive are those of the source. How the source made its calls: active means hit-call score of the fitted dose curve at least 0.9, where 1 is the maximum; inconclusive means response in the unintended direction; inactive means score below 0.9.
property: AC50

CCc1oc2ccccc2c1C(=O)c1cc(I)c(O)c(I)c1 = 23 µM (active)
OCC1(CO)COCOC1 = inactive
CCC(N)(CO)CO = inactive
CC(C)C(O)C(C)(C)CO (centres undefined) = inactive

----------
# system_tested: Cellular tumor antigen p53 (Homo sapiens)
# assay_summary: TOX21_p53_BLA_p2_ratio: Tox21 HCT-116 p53 Agonism Beta-lactamase Assay, Ratio, Phase 2 (AID 2283592)
Inconclusive results are not listed. Active and inactive are the calls of the source. The calls were made as follows: active = hit-call score of the fitted dose curve at least 0.9, where 1 is the maximum; inconclusive = response in the unintended direction; inactive = score below 0.9.
The reply should be one of these categories: active, inactive

Here's what some known entries look like.
N[C@@H](C(=O)N[C@@H]1C(=O)N2C(C(=O)O)=C(Cl)CS[C@H]12)c1ccccc1 = inactive
O=S(=O)(c1ccccc1)c1ccc(Cl)cc1 = inactive
CC(=O)CC(=O)Nc1ccc2[nH]c(=O)[nH]c2c1 = inactive
CCOc1nc2cccc(C(=O)OC(C)OC(=O)OC3CCCCC3)c2n1Cc1ccc(-c2ccccc2-c2nn[nH]n2)cc1 (configuration not stated) = active
CC(=O)CC(=O)OC(C)(C)C = inactive

Task: Per the assay record, what outcome was assigned to "CCC(=O)O[C@]1(C(=O)CCl)[C@@H](C)C[C@H]2[C@@H]3C[C@H](F)C4=CC(=O)C=C[C@]4(C)[C@@]3(F)[C@@H](O)C[C@@]21C" ?
Result: inactive

Task: For this compound, state the assay outcome: "Oc1ccc(Cl)c2cccnc12"
Result: inactive

----------
# system_tested: CCAAT/enhancer-binding protein beta (Homo sapiens) (UniProt P17676)
# Sequence (P17676 whole entry, looked up): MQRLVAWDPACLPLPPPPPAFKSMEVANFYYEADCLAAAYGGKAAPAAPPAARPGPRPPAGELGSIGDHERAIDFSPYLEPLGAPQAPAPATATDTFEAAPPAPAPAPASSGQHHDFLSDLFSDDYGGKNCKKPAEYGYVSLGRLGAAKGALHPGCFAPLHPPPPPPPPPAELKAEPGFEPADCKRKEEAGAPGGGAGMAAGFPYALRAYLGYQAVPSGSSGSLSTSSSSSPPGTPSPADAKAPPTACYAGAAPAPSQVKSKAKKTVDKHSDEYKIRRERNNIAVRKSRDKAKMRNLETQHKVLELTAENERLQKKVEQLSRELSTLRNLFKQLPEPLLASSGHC
# assay_summary: ATG_C_EBP_CIS: Attagene CIS-FACTORIAL HepG2 Assay for human CCAAT/Enhancer Binding Protein (C/EBP) beta (AID 2282927)
# experimental_conditions: HepG2 Attagene cis-factorial transcription factor reporter; actives raise or lower the signal
The source made the active and inactive calls. Rule for the calls: active = hit-call score of the fitted dose curve at least 0.9, where 1 is the maximum; inactive = score below 0.9.
Response enum: active, inactive

Solved cases below.
C=CCOCC(CC)(CO)COCC=C = inactive
CCCCCC[C@@H](O)C/C=C\CCCCCCCC(=O)O = active
c1ccc2c(c1)Oc1ccccc1S2 = inactive

Here is another compound to look at.
Task: Assay result, entry "C/C=C(\C)C(=O)OCC/C=C\CC" — outcome?
Result: inactive

----------
# assay_summary: TOX21_p53_BLA_p2_viability: Viability Assessment in the Tox21 HCT-116 p53 Agonism Beta-lactamase Assay, Phase 2 (AID 2283591);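 further: compound exposure lasted 16 h at 37 °C; actives lower the ATP signal meaning cytotoxicity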
Inconclusive results are not listed. Active and inactive are the calls of the source. How the source made its calls: active means hit-call score of the fitted dose curve at least 0.9, where 1 is the maximum; inconclusive means response in the unintended direction; inactive means score below 0.9.
I would appreciate it if you answered using one of these outcomes: T for active, F for inactive

CCCCCCCCCCCCCCCC(=O)OC[C@H](COP(=O)([O-])OCC[N+](C)(C)C)OC(=O)CCCCCCCCCCCCCCC = F
C=CCCC = F
CC(=O)Nc1cccc(C)c1 = F
CC(C)C(=O)OC(=O)C(C)C = F
CCN(CC)CCCC(C)Nc1c2ccc(Cl)cc2nc2ccc(OC)cc12 (stereo unspecified) = F

Task: What call does the record list for "OC1(c2ccc(Cl)c(C(F)(F)F)c2)CCN(CCCC(c2ccc(F)cc2)c2ccc(F)cc2)CC1" ?
Result: T

Task: What classification did "O=C=Nc1cccc(C(F)(F)F)c1" end up with in this test?
Result: F

Task: Entry "Cc1ccc(Cl)cc1N" : call = ?
Result: F

Task: Check the results log: what was the call for "CCCCCCCC/C=C\CCCCCCCCOCCO" ?
Result: T

Task: Which outcome was assigned to "C(=C/c1ccccc1)/c1ccccc1" in this test?
Result: F

Task: Hi team, can someone confirm the assay call for "O=C(Nc1ccc(Oc2ccc(Cl)cc2)c(Cl)c1)c1cc(I)cc(I)c1O" ?
Result: T

----------
# system_tested: Nuclear receptor subfamily 4 group A member 2 (Homo sapiens)
# assay_summary: ATG_NURR1_TRANS: Attagene TRANS-FACTORIAL HepG2 Assay for human Nuclear Receptor Related Protein 1 (NURR1) (AID 2282985)
# experimental_conditions: HepG2 Attagene TRANS reporter, mRNA readout
Inconclusive results are not listed. Calls of active or inactive are those of the source. Rule for the calls: active = hit-call score of the fitted dose curve at least 0.9, where 1 is the maximum; inconclusive = response in the unintended direction; inactive = score below 0.9.
property: AC50

Worked cases, answers included:
CCCCCC[C@@H](O)C/C=C\CCCCCCCC(=O)O = 108 µM (active)
CC(C)=CCOC(=O)c1ccccc1 = inactive
CCCCCCCCCC/C=C/C1CC(=O)OC1=O (stereo unspecified) = inactive
CO[Si](CCCNCCN)(OC)OC = inactive
CC/C=C\CC/C=C/C(OCC)OCC = inactive
CCCCCCOC(=O)CCCCCCCC(=O)OCCCCCC = inactive

Observed AC50, Nuclear receptor subfamily 4 group A member 2 (Homo sapiens), "O=C(O)/C=C\C(=O)O" : inactive

# "Cc1cc(O)cc(C)c1Cl" with Nuclear receptor subfamily 4 group A member 2 (Homo sapiens): AC50 is inactive

Assay Nuclear receptor subfamily 4 group A member 2 (Homo sapiens), sample "CC(=O)Nc1c(I)c(NC(C)=O)c(I)c(C(=O)O)c1I" , AC50 read: inactive

The reported Nuclear receptor subfamily 4 group A member 2 (Homo sapiens) AC50 of "CC[N+](CC)(CC(=O)Nc1c(C)cccc1C)Cc1ccccc1" is inactive

# lookup: "CN(C)c1ccc(C(c2ccccc2)c2ccc(N(C)C)cc2)cc1" on Nuclear receptor subfamily 4 group A member 2 (Homo sapiens), AC50 = inactive

----------
# assay_summary: ACEA_ER_AUC_viability: ACEA Biosciences xCELLigence Real-Time Cell Analysis on Estrogen Receptor Agonism for Viability (AID 2283782);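 further: continuous compound exposure with impedance area under curve over 80 h; hit means loss of impedance signal meaning reduced cell growth or viability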
Records with an inconclusive call do not appear. The source made the active and inactive calls. The calls were made as follows: active = hit-call score of the fitted dose curve at least 0.9, where 1 is the maximum; inconclusive = response in the unintended direction; inactive = score below 0.9.
Outcome (select one): active, inactive

// below: answered molecules
O=C(O)/C=C/C(=O)O = inactive
CC(C)(C)C(=O)C(=O)O = inactive
CCCCCCCC/C=C/CCCOC(C)=O = inactive
COc1ccc2cc([C@H](C)C(=O)O)ccc2c1 = inactive
CCC(=O)OCc1ccc(OC)cc1 = active
CCCCC(CC)COC(=O)CS (stereo not given) = inactive

Task: Just curious, what result did "Cc1ccccc1S(N)(=O)=O" get here?
Result: inactive

Task: Recorded test outcome, item "CCCOCCC"
Result: inactive

Task: What did the test return for C=CC(C)(CCC=C(C)C)OC(=O)c1ccccc1 (stereo not given) ?
Result: active

Task: # lookup: test call for "O=C1CCCCCCCCCCCCCC1"
Result: inactive

Task: Field: outcome | Entry: "CCCCCCCCCCCCCC"
Result: inactive

Task: Could you check what this test reported for "O=C(OCc1ccccc1)c1ccccc1" ?
Result: active

Task: Test call, this molecule: "CC/C=C\CC1=C(C)CCC1=O"
Result: active

Task: Entry "NCCN1CCOCC1" : call = ?
Result: inactive

Task: Fill in: this test's call for CCC(C)NC(N)=O (stereo not given) is ___
Result: active

----------
# system_tested: Cellular tumor antigen p53 (Homo sapiens)
# assay_summary: TOX21_p53_BLA_p4_ratio: Tox21 HCT-116 p53 Agonism Beta-lactamase Assay, Ratio, Phase 4 (AID 2283601)
Inconclusive results are not listed. The source made the active and inactive calls. The calls were made as follows: active = hit-call score of the fitted dose curve at least 0.9, where 1 is the maximum; inconclusive = response in the unintended direction; inactive = score below 0.9.
Return exactly one item of label 1 = active, label 0 = inactive

Example cases with answers are listed next.
CCC1(CO)COCOC1 = label 0
O=C(Nc1ccc(C(=O)O)c(O)c1)c1ccccc1 = label 0
COC(=O)CCCC(=O)O = label 0
CNC(=O)c1cc(Oc2ccc(NC(=O)Nc3ccc(Cl)c(C(F)(F)F)c3)cc2)ccn1 = label 0

Task: Outcome? "CNC(=O)C[C@@H](N)C(=O)N[C@@H](C(=O)N[C@@H]1C(=O)N2[C@@H]1SC(C)(C)[C@@H]2C(=O)O)c1ccc(O)cc1"
Result: label 0

Task: Can you look up the reported call for "O=C(N/N=C/c1ccccc1O)c1ccncc1" for me?
Result: label 0

Task: So what was the verdict on "Nc1cc(C(Cl)=C(Cl)Cl)c(S(N)(=O)=O)cc1S(N)(=O)=O" in this test?
Result: label 0
